The reported numbers originate from PubChem BioAssay (NCI).

A short record of GI50 observed with MDA-MB-435 follows.

# annotated cases, reported GI50 shown
molecule=NC1=CC(=O)c2cccnc2C1=O recorded_endpoint=GI50 experimental_value="833 nM"
molecule=Cc1cccc(-c2[nH]ncc2-c2ccc3ncccc3n2)n1 recorded_endpoint=GI50 experimental_value="15400 nM"

Enquiry: Find the recorded GI50 belonging to O=C(/C=C/c1ccco1)c1cc(F)c(Cl)cc1Cl and report it.
Return: 32200 nM

Enquiry: Same question for O=C(c1ccco1)c1nc2cc(C(F)(F)F)ccc2nc1C(F)(F)F please.
Return: > 100000 nM

Enquiry: Same question for C[n+]1c(/C=C/c2c[nH]c3ccccc23)ccc2ccccc21 please.
Return: 7950 nM

Enquiry: Same question for COC1=CC(c2ccc[nH]2)=N/C1=C\c1[nH]c(C)c(CC(=O)OCc2ccccc2)c1CCC(=O)OCc1ccccc1 please.
Return: 412 nM
